Entry source: paper PMC7790537

target: recombinant trimeric HA of A/Puerto Rico/8/1934 (H1N1) (influenza A virus A/Puerto Rico/8/1934 …, UniProt P03452); test: cell-based or functional assay
Sequence (P03452 18-528): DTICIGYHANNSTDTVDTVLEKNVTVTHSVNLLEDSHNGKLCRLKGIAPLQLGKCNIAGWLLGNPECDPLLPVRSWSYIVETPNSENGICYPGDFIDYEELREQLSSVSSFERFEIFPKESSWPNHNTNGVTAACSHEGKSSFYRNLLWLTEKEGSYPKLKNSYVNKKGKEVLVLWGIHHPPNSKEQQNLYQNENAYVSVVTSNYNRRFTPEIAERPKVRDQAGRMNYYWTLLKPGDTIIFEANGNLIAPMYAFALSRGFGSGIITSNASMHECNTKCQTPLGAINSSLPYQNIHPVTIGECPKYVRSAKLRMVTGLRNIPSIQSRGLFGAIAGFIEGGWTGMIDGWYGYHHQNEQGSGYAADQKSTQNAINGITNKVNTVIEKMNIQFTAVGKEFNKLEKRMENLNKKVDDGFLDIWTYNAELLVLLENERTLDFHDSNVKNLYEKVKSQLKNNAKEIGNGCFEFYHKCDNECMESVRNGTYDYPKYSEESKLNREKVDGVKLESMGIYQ
assay endpoint: HI activity, minimum HI concentration, PR8 virus (µg/mL)
I only need the number, in µg/mL, no unit after it.

Examples from the recorded data:
binder	measurement unit	reported value
F11 IgA2m2 polymer (antibody, V domains shown) VH: QVQLVQSGAEVKRPGSSVRVSCRTSGGSFTSFAISWVRQAPGQGLEWMGRITRILGVPNYAQKFQGRVTITADMPTTTAYLDLTNLRSEDTAVYYCARDSGTSHGDFDYWGQGTLVTVSS VL: EIVLTQSPVTLSLSPGERATLSCRASQNVINSLVWYQQKPGQAPRLLIYGASNRATGIPARFRGSGSGTDFTLTIDSLEPEDIAVYYCQQRGTWLWSFGQGTKVEIK	µg/mL	500
F11 IgA1 monomer (antibody, V domains shown) VH: QVQLVQSGAEVKRPGSSVRVSCRTSGGSFTSFAISWVRQAPGQGLEWMGRITRILGVPNYAQKFQGRVTITADMPTTTAYLDLTNLRSEDTAVYYCARDSGTSHGDFDYWGQGTLVTVSS VL: EIVLTQSPVTLSLSPGERATLSCRASQNVINSLVWYQQKPGQAPRLLIYGASNRATGIPARFRGSGSGTDFTLTIDSLEPEDIAVYYCQQRGTWLWSFGQGTKVEIK	µg/mL	354
F11 IgA1 polymer (antibody, V domains shown) VH: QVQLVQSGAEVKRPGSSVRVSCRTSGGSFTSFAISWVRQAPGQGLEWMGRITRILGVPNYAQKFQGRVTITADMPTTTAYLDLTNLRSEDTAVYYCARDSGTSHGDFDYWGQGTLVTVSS VL: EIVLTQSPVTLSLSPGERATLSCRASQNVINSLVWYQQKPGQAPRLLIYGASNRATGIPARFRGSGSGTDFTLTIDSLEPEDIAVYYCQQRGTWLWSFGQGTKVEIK	µg/mL	500

Summary for this binder, F11 IgA2m2 monomer (antibody, V domains shown) VH: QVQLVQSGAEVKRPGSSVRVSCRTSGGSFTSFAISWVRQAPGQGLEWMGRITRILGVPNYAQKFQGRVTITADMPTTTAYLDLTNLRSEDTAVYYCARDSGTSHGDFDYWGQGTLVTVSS VL: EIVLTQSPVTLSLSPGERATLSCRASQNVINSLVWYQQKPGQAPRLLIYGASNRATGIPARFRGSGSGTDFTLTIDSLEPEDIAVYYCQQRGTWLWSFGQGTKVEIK : HI activity, minimum HI concentration, PR8 virus is 500
